For each entry below, report its pIC50 value.
# tested_system: CDK1/cyclinB1 (Homo sapiens, UniProt P06493)
# Sequence (P06493 whole entry): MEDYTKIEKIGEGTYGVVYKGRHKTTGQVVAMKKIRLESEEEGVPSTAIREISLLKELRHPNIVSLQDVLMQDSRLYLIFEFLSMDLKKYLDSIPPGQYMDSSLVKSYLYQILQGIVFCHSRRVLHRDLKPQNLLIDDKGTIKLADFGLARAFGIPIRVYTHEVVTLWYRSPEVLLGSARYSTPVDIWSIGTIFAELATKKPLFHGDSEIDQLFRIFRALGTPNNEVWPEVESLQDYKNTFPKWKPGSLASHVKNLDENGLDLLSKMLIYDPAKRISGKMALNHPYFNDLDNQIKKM
# Sequence (P14635 whole entry partner): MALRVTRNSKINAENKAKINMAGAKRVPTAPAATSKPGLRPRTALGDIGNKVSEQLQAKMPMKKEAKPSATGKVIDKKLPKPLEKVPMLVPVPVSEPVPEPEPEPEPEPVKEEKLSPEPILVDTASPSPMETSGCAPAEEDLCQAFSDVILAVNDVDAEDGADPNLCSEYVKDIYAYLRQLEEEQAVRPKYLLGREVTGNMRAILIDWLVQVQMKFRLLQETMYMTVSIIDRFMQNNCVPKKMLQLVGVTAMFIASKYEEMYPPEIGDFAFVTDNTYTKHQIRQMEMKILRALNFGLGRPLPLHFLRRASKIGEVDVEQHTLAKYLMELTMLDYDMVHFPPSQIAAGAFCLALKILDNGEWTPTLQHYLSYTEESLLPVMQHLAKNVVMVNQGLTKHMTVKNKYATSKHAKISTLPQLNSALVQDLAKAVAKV
# test_name: Cyclin-dependent kinase activity assay (continuous ATP coupling assay), CDK1/cyclinB1
# recorded_conditions: CDK1/cyclinB1 10 nM, ATP 200 μM, Histone1 copeptide 100 μM, 15 min preincubation, pH 7.5, 1% DMSO
pIC50: −log10 of the molar value.

The molecule CNS(=O)(=O)c1ccc(Nc2ncc(C(F)(F)F)c(-n3cc(C4CCNC4)cn3)n2)cc1 (single isomer, unassigned) showed pIC50 equal to 7.00 to 8.00

// sample CNS(=O)(=O)c1ccc(Nc2ncc(C(F)(F)F)c(-n3cc([C@@H]4CCNC4)cn3)n2)cc1 , its pIC50 was 7.00 to 8.00

Lookup result for CNS(=O)(=O)c1ccc(Nc2ncc(C(F)(F)F)c(-n3cc(CC(C)(C)N)cn3)n2)cc1 ; measured pIC50: 7.00 to 8.00

CNS(=O)(=O)c1ccc(Nc2ncc(C(F)(F)F)c(-n3cc([C@H]4C[C@](C)(O)C4)cn3)n2)cc1 (single isomer, unassigned) has a reported pIC50 of ≤ 7.00

Entry under test: NS(=O)(=O)c1ccc(Nc2ncc(C(F)(F)F)c(-n3cccn3)n2)c(F)c1 . Its pIC50 was ≤ 7.00

Just so you know, measured pIC50 for CNS(=O)(=O)c1ccc(Nc2ncc(C(F)(F)F)c(-n3cc(C4CCN(C)C4)cn3)n2)cc1 (single isomer, unassigned) [Example 95] came out at 7.00 to 8.00

Memo: O=S(=O)(NCCCO)c1ccc(Nc2ncc(C(F)(F)F)c(-n3cccn3)n2)cc1 , reported pIC50: ≤ 7.00

Record CNS(=O)(=O)c1ccc(Nc2ncc(C(F)(F)F)c(-n3cc(-c4ccoc4)cn3)n2)cc1 , field pIC50: ≤ 7.00

// CNS(=O)(=O)c1ccc(Nc2ncc(C(F)(F)F)c(-n3cc([C@H]4CCC[C@@H]4O)cn3)n2)cc1 (single isomer, unassigned) : pIC50 value = ≤ 7.00

Value of pIC50 reported for the molecule CNS(=O)(=O)c1ccc(Nc2ncc(C(F)(F)F)c(-n3cc(N4CCN(C)CC4)cn3)n2)cc1 is ≤ 7.00

# molecule O=S(=O)(NCCO)c1ccc(Nc2ncc(C(F)(F)F)c(-n3cccn3)n2)nc1 ; its pIC50 = ≤ 7.00

For this molecule ( O=S(=O)(NC1CC(F)(F)C1)c1ccc(Nc2ncc(C(F)(F)F)c(-n3cccn3)n2)cc1 ), measured pIC50 is ≤ 7.00

Record summary for CNS(=O)(=O)c1ccc(Nc2ncc(C(F)(F)F)c(-n3cc(N4CC(O)C4)cn3)n2)cc1 : reported pIC50 = 7.00 to 8.00
